This section presents compounds with their documented %Inh values.
# Tested on: CDK7
# study.conditions: concentration: 1 μM, replicates: in singlicate; n = 1;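 note: KINOMEscan kinase panel screen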
Just the number in %, nothing appended.

Query block: Lab note: need %Inh for `CCn1c(-c2ccccc2)nc2cnccc21` on CDK7, anyone have it?
Result block: 0

Query block: Please answer likewise for `CSc1ccc(-c2nc3n(c2-c2ccncc2)CCC3)cc1`
Result block: 0

Query block: Please answer likewise for `CS(=O)(=O)Cc1ccc(Nc2nccc(-c3c(-c4cccc(NC(=O)C5CCCCC5)c4)nn4ncccc34)n2)cc1`
Result block: 6

Query block: Please answer likewise for `CCn1c(-c2c(N)noc2C)nc2cnccc21`
Result block: 0

Query block: Please answer likewise for `Cc1ccc(NC(=O)c2ccc(Cl)cc2)cc1-c1ccc(C(=O)Nc2ccncc2)cc1`
Result block: 0

Query block: Please answer likewise for `Cn1cnc2c(N)ncnc21`
Result block: 0

* * *

# Test system: RIOK1
# study.conditions: concentration: 1 μM, replicates: in singlicate; n = 1
observation.type: %Inh (%)
Just the number in %, nothing appended.

1) O=C(Nc1n[nH]c2nc(-c3cccs3)c(Br)cc12)C1CC1 [SB-735297]	7
2) COc1ccc(Nc2nccc(N3CCC(NC(=O)C(C)c4ccc(Cl)cc4)C3)n2)cc1 (stereo not drawn) [GSK1379735]	27
3) Cc1cnc(N)c(/C=C/c2cncc(C(=O)NCCc3ccc(Cl)cc3Cl)c2)c1.Cl [GSK190937]	3
4) CC(=O)c1cccc(NC(=O)NC2CCN(c3ccnc(Nc4ccc(F)cc4)n3)C2)c1 (stereo not drawn) [GSK1379710]	31
5) COc1ccc(Nc2nccc(N3CCC(NC(=O)c4cc5ccccc5s4)C3)n2)cc1 (stereo not drawn) [GSK1379738]	24
6) COC(=O)c1cccc(NC(=O)NC2CCN(c3ccnc(Nc4ccc(OC)cc4)n3)C2)c1 (stereo not drawn) [GSK1379746]	43
7) Cc1c(Cn2c3ccccc3n3c(=O)cc(N4CCOCC4)nc23)cccc1C(F)(F)F [GSK2306394]	35
8) Fc1ccc(-c2nc[nH]c2-c2ccncc2)cc1 [SB-217360]	0

Query block: Which %Inh is listed for Cc1ccc(NC(=O)Nc2ccc(Cl)cc2)cc1-c1ccc(C(=O)Nc2ccncc2)cc1 [GSK1398472] ?
Result block: 31

* * *

# System: CSNK1D
# study.conditions: concentration: 1 μM, replicates: in singlicate; n = 1
observation.type: %Inh (%)
Just the number in %, nothing appended.

Query block: Which %Inh is listed for `COc1ccc(CSc2nnc(-c3ccc4c(c3)CCO4)o2)cc1` ?
Result block: 0

Query block: Please answer likewise for `COc1ccc(Nc2nccc(-c3ccc(NC(=O)c4cc5cc(F)ccc5[nH]4)cc3)n2)cc1`
Result block: 0

* * *

# Test system: ABL1-phosphorylated
# study.conditions: concentration: 1 μM, replicates: in singlicate; n = 1
This section presents compounds with their documented %Inh values.
Just the number in %, nothing appended.

1. COc1ccc2cc(-c3nc(-c4ccccc4C(C)C)[nH]c3-c3ccncc3)ccc2c1	3
2. Nc1nccc(-c2c(-c3ccc(F)cc3)ncn2C2CCN(Cc3ccccc3)CC2)n1	0
3. Fc1ccc(-c2nn3cccc(F)c3c2-c2ccncc2)cc1	0
4. CN1c2ccc(-c3ccc(C(N)=O)cc3)cc2-c2[nH]ncc2S1(=O)=O	9
5. CC[C@@H]1CO[C@H](C(=O)Nc2ccccc2)CN1c1cc(-c2ccc3c(N)n[nH]c3c2)nc(NC)n1	0

Query block: Which %Inh is listed for `Cc1cccc2c(-c3ccncn3)c(-c3ccc(F)cc3)nn12` ?
Result block: 0

Query block: Please answer likewise for `Cc1c(Cn2c(C)c(C)n3c(=O)cc(N4CCOCC4)nc23)cccc1C(F)(F)F`
Result block: 0

Query block: Please answer likewise for `COc1ccc(CSc2nnc(-c3ccc4nccn4c3)o2)cc1C(F)(F)F`
Result block: 13

Query block: Please answer likewise for `CCn1c(-c2c(N)noc2C)nc2cnccc21`
Result block: 13

Query block: Please answer likewise for COc1cccc(CNC(=O)NC2CCN(c3ccnc(Nc4ccc(F)cc4)n3)C2)c1 (stereo not drawn)
Result block: 1

Query block: Please answer likewise for `CNc1nc(-c2ccc3c(N)n[nH]c3c2)cc(N2C[C@@H](C(=O)Nc3ccccc3)CC[C@H]2C)n1`
Result block: 0

Query block: Please answer likewise for `Cc1ccc(NC(=O)Nc2ccccc2)cc1-c1ccc(C(=O)Nc2ccncc2)cc1`
Result block: 0

Query block: Please answer likewise for `CC(C)c1ccc(O)cc1Nc1ccnc2ccc(C(F)(F)F)cc12`
Result block: 0

Query block: Please answer likewise for `O=C(Nc1n[nH]c2nc(-c3cccs3)c(Br)cc12)C1CC1`
Result block: 30

Query block: Please answer likewise for `Nc1cccc(-c2ccc3c(N)n[nH]c3c2)n1`
Result block: 0

Query block: Please answer likewise for `COc1cccc(NC(=O)Nc2ccc(C)c(-c3ccc(C(=O)Nc4ccncc4)cc3)c2)c1`
Result block: 0

Query block: Please answer likewise for `CC(=O)c1c(C)c2cnc(Nc3ccn(C)n3)nc2n(C2CCCC2)c1=O`
Result block: 0

Query block: Please answer likewise for `Cc1cnc(N)c(/C=C/c2cncc(C(=O)NCCc3ccc(Cl)cc3Cl)c2)c1.Cl`
Result block: 0

* * *

This section presents molecules with their documented %Inh values.
# Tested on: ULK3
# study.conditions: concentration: 1 μM, replicates: in singlicate; n = 1
Just the number in %, nothing appended.

1. O=C(Nc1n[nH]c2nc(-c3ccco3)c(Br)cc12)C1CCN(Cc2ccccc2)C1.O=C(O)[C@H](O)[C@@H](O)C(=O)O (stereo not shown)	6
2. O=C(Nc1n[nH]c2cc(-c3ccsc3)ccc12)C1CC1	32
3. COc1ccc(Nc2nccc(NCCNC(=O)Nc3cc(C)ccc3C)n2)cc1	0
4. Nc1cccc(-c2ccc3c(N)n[nH]c3c2)n1	18
5. CSc1ccc(-c2nc3n(c2-c2ccncc2)CCC3)cc1	33

Moving on to the next molecule.
Query block: Which %Inh is listed for `O=C(Nc1n[nH]c2nc(-c3cccs3)c(Br)cc12)C1CCCC1` ?
Result block: 0

* * *

This section presents compounds with their documented %Inh values.
# Test system: WNK2
# study.conditions: concentration: 1 μM, replicates: in singlicate; n = 1
Field note: include the unit after the figure.

For orientation, consider the following solved cases.
1. O=c1cc(N2CCOCC2)nc2n(Cc3ccccc3F)ccn12	0%
2. COc1ccc(CSc2nnc(-c3ccc4nccn4c3)o2)cc1C(F)(F)F	0%
3. CS(=O)(=O)CCNCc1nc(-c2ccc3ncnc(Nc4ccc5c(cnn5Cc5ccccc5)c4)c3c2)cs1.Cl.Cl	3%

Moving on to the next compound.
Query block: Which %Inh is listed for `CNc1nc(-c2ccc3c(N)n[nH]c3c2)cc(N2C[C@@H](C(=O)NC3CCCCC3)OC[C@H]2C)n1` ?
Result block: 25%

* * *

# System: NEK6
# study.conditions: concentration: 1 μM, replicates: in singlicate; n = 1
observation.type: %Inh (%)
Just the number in %, nothing appended.

1) CNC(=O)c1ccc(C)c(-n2c(C)cc(OCc3ccc(F)cc3F)c(Br)c2=O)c1	0
2) FC(F)(F)c1ccccc1-c1cc(-c2c[nH]nc2-c2ccccn2)ccn1	0
3) Cc1ccc(NC(=O)Nc2ccccc2F)cc1-c1ccc(C(=O)Nc2ccncc2)cc1	2

Moving on to the next molecule.
Query block: Which %Inh is listed for `CS(=O)(=O)CCNCc1nc(-c2ccc3ncnc(Nc4ccc(OCc5ccccc5)c(Cl)c4)c3c2)cs1.Cl` ?
Result block: 0

* * *

# Test system: CAMK2D
# study.conditions: concentration: 1 μM, replicates: in singlicate; n = 1
observation.type: %Inh (%)
Just the number in %, nothing appended.

For orientation, consider the following solved cases.
1) Cc1ccccc1Cn1ccn2c(=O)cc(N3CCOCC3)nc12	20
2) CNC(=O)c1ccc(C)c(-n2c(C)cc(OCc3ccc(F)cc3F)c(Br)c2=O)c1	0
3) Cn1cncc1-c1cc2c(Nc3ccc(OCc4ccccc4)cc3)ncnc2cn1	12
4) Cc1c(Cn2c3ccccc3n3c(=O)cc(N4CCOCC4)nc23)cccc1C(F)(F)F	9
5) COc1ccc(-c2coc3ccc(-c4nnc(C)o4)cc23)cc1	5
6) COc1ccc(Nc2nccc(N3CCC(NC(=O)c4cc5ccccc5s4)C3)n2)cc1 (stereo not drawn)	59

Query block: Lab note: need %Inh for `COc1ccc2cc(-c3nc(-c4ccccc4C(C)C)[nH]c3-c3ccncc3)ccc2c1` on CAMK2D, anyone have it?
Result block: 2

Query block: Please answer likewise for Cn1cncc1C(=O)NC1CCN(c2ccnc(Nc3ccc(F)cc3)n2)C1 (stereo not drawn)
Result block: 24

Query block: Please answer likewise for `COc1ccc(CSc2nnc(-c3ccc4c(c3)CCO4)o2)cc1`
Result block: 0

* * *

This section presents compounds with their documented %Inh values.
# Test system: ACVR1B
# study.conditions: concentration: 1 μM, replicates: in singlicate; n = 1
Just the number in %, nothing appended.

For orientation, consider the following solved cases.
1) COc1ccc(CSc2nnc(-c3ccc4ncsc4c3)o2)cc1C(F)(F)F	9
2) Cn1cncc1-c1cc2c(Nc3ccc(OCc4ccccc4)cc3)ncnc2cn1 [GW281179]	0
3) O=c1cc(N2CCOCC2)nc2n(Cc3ccccc3F)ccn12 [GSK2297428]	0
4) CNC(=O)c1ccc(C)c(-n2c(C)cc(OCc3ccc(F)cc3F)c(Br)c2=O)c1	7
5) CC(=O)c1c(C)c2cnc(Nc3ccn(C)n3)nc2n(C2CCCC2)c1=O	2
6) NS(=O)(=O)c1cccc(N/C=C2\C(=O)Nc3ccc(S(=O)(=O)Cc4c(Cl)cccc4Cl)cc32)c1 [GSK398099]	0
7) CCCCc1nn2ncccc2c1-c1ccnc(NC2CC2)n1 [GW684374]	0
8) COc1ccc(Nc2nccc(-c3ccc(NC(=O)c4cc5cc(F)ccc5[nH]4)cc3)n2)cc1 [GSK1229496]	23

Moving on to the next compound.
Query block: Which %Inh is listed for Cc1cnc(N)c(/C=C/c2cncc(C(=O)NCCc3ccc(Cl)cc3Cl)c2)c1.Cl [GSK190937] ?
Result block: 0
